Biological target: Amine oxidase [flavin-containing] A (Homo sapiens)
Assay: Inhibition of monoamine oxidase A at 10 uM
Settings: read-out: INH
Below, each entry is listed alongside its reported inhibition at 10 µM.
outcome.measure: inhibition at 10 µM

molecule="COc1cc(O)c2c(=O)c3cc(O[C@@H]4O[C@H](CO)[C@@H](O)[C@H](O)[C@H]4O)ccc3oc2c1OC [VERATRILOSIDE]" system_tested="Amine oxidase [flavin-containing] A (Homo sapiens)" outcome_measure="inhibition at 10 µM" reported=19.4%
molecule=COc1cc(O)c2c(=O)c3c(O[C@@H]4O[C@H](CO)[C@@H](O)[C@H](O)[C@H]4O)ccc(O)c3oc2c1 system_tested="Amine oxidase [flavin-containing] A (Homo sapiens)" outcome_measure="inhibition at 10 µM" reported=43.8%
molecule="COc1c(O)ccc2c(=O)c3c(OC4O[C@H](CO)[C@@H](O)[C@H](O)[C@H]4O)cc(O)c(OC)c3oc12 (some centres not stated)" system_tested="Amine oxidase [flavin-containing] A (Homo sapiens)" outcome_measure="inhibition at 10 µM" reported=15%
molecule=COc1cc(O)c2c(=O)c3c(O)ccc(O)c3oc2c1 system_tested="Amine oxidase [flavin-containing] A (Homo sapiens)" outcome_measure="inhibition at 10 µM" reported=98.9%
molecule=O=c1c2c(O)cc(O)cc2oc2c(O)ccc(O[C@@H]3O[C@H](CO)[C@@H](O)[C@H](O)[C@H]3O)c12 system_tested="Amine oxidase [flavin-containing] A (Homo sapiens)" outcome_measure="inhibition at 10 µM" reported=12.2%
molecule="COc1cc(O)c2c(=O)c3c(O)c(O[C@@H]4O[C@H](CO)[C@@H](O)[C@H](O)[C@H]4O)ccc3oc2c1OC [TRIPTEXANTHOSIDE C]" system_tested="Amine oxidase [flavin-containing] A (Homo sapiens)" outcome_measure="inhibition at 10 µM" reported=13.4%
molecule=C#CCN(C)Cc1ccccc1 system_tested="Amine oxidase [flavin-containing] A (Homo sapiens)" outcome_measure="inhibition at 10 µM" reported=60%

* * *

Biological target: Amine oxidase [flavin-containing] A (Homo sapiens, UniProt P21397)
Sequence (P21397 whole entry): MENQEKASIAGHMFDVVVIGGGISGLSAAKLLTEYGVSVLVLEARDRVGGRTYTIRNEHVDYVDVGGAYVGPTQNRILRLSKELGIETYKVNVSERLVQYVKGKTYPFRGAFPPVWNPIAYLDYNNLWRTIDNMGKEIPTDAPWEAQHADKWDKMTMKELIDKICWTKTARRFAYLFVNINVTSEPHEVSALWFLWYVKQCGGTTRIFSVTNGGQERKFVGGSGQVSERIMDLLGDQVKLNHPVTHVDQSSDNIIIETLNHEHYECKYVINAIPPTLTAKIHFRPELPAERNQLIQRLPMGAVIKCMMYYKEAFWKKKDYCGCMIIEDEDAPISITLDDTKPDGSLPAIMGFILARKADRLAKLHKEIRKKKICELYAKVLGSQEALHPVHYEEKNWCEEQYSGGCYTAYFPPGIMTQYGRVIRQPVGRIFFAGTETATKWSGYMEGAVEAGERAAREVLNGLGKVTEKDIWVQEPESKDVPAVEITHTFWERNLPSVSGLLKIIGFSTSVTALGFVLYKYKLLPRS
Test: Inhibition of monoamine oxidase A at 10 uM
Settings: read-out: INH
Below, each entry is listed alongside its reported inhibition at 10 µM.
outcome.measure: inhibition at 10 µM (%)

smiles_data=COc1ccc(O)c2c(=O)c3c(O)cc(O[C@@H]4O[C@H](CO)[C@@H](O)[C@H](O)[C@H]4O)c(OC)c3oc12 system_tested="Amine oxidase [flavin-containing] A (Homo sapiens, UniProt P21397)" reported=40.2
smiles_data=O=c1c2c(O)cc(O)cc2oc2c(O)ccc(O)c12 system_tested="Amine oxidase [flavin-containing] A (Homo sapiens, UniProt P21397)" reported=90.5
smiles_data=COc1ccc(O[C@@H]2O[C@H](CO)[C@@H](O)[C@H](O)[C@H]2O)c2c(=O)c3c(O)c(-c4cc(O)c5oc6cc(O)cc(O)c6c(=O)c5c4O)c(O)cc3oc12 system_tested="Amine oxidase [flavin-containing] A (Homo sapiens, UniProt P21397)" reported=21.4
smiles_data=O=c1c2c(O)c(-c3cc(O)c4oc5cc(O)cc(O)c5c(=O)c4c3O)c(O)cc2oc2c(O)ccc(O)c12 system_tested="Amine oxidase [flavin-containing] A (Homo sapiens, UniProt P21397)" reported=14.8

* * *

Target: Amine oxidase [flavin-containing] B (Homo sapiens, UniProt P27338)
Sequence (P27338 whole entry): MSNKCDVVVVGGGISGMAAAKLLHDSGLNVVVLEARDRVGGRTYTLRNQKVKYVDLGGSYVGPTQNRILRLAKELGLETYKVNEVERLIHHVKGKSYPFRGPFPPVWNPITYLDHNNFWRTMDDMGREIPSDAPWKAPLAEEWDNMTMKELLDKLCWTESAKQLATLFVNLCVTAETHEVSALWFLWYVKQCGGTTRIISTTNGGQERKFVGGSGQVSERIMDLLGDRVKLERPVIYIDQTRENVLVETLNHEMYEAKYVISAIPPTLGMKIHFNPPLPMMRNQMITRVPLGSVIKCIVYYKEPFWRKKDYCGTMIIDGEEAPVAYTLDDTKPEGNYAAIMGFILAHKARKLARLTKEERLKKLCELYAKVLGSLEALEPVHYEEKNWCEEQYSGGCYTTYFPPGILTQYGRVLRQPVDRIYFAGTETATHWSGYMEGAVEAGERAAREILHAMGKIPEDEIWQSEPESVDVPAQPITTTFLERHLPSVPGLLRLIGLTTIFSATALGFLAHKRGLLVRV
Assay: Inhibition of monoamine oxidase B at 10 uM
Settings: read-out: INH
outcome.measure: inhibition at 10 µM (%)

compound="COc1cc(O)c2c(=O)c3c(O[C@@H]4O[C@H](CO)[C@@H](O)[C@H](O)[C@H]4O)ccc(O)c3oc2c1 [SWERTIANOLIN]" reported=93.6
compound="O=c1c2c(O)cc(O)cc2oc2c(O)ccc(O[C@@H]3O[C@H](CO)[C@@H](O)[C@H](O)[C@H]3O)c12 [NORSWERTIANOLIN]" reported=28.9
compound="COc1cc(O)c2c(=O)c3c(O)ccc(O)c3oc2c1 [BELLIDIFOLIN]" reported=65.2
compound=O=c1c2c(O)c(-c3cc(O)c4oc5cc(O)cc(O)c5c(=O)c4c3O)c(O)cc2oc2c(O)ccc(O)c12 reported=41.1
compound="COc1cc(O)c2c(=O)c3c(O)c(O[C@@H]4O[C@H](CO)[C@@H](O)[C@H](O)[C@H]4O)ccc3oc2c1OC [TRIPTEXANTHOSIDE C]" reported=38.8
compound=COc1ccc(O)c2c(=O)c3c(O)cc(O[C@@H]4O[C@H](CO)[C@@H](O)[C@H](O)[C@H]4O)c(OC)c3oc12 reported=47.8
compound="COc1c(O)ccc2c(=O)c3c(OC4O[C@H](CO)[C@@H](O)[C@H](O)[C@H]4O)cc(O)c(OC)c3oc12 (stereo partly specified)" reported=70.5
compound="C#CCN(C)Cc1ccccc1 [PARGYLINE]" reported=98.2
compound="COc1cc(O)c2c(=O)c3cc(O[C@@H]4O[C@H](CO)[C@@H](O)[C@H](O)[C@H]4O)ccc3oc2c1OC [VERATRILOSIDE]" reported=56
compound=COc1ccc(O[C@@H]2O[C@H](CO)[C@@H](O)[C@H](O)[C@H]2O)c2c(=O)c3c(O)c(-c4cc(O)c5oc6cc(O)cc(O)c6c(=O)c5c4O)c(O)cc3oc12 reported=39.1
compound="O=c1c2c(O)cc(O)cc2oc2c(O)ccc(O)c12 [DEMETHYLBELLIDIFOLIN]" reported=59
